The entries below are paired with their reported IC50.
target.system: T877A (LNCaP) AR (Homo sapiens, UniProt P10275, T878A)
Construct: expressed in transfected cells; host or cells: CV-1
Sequence (P10275 whole entry T878A): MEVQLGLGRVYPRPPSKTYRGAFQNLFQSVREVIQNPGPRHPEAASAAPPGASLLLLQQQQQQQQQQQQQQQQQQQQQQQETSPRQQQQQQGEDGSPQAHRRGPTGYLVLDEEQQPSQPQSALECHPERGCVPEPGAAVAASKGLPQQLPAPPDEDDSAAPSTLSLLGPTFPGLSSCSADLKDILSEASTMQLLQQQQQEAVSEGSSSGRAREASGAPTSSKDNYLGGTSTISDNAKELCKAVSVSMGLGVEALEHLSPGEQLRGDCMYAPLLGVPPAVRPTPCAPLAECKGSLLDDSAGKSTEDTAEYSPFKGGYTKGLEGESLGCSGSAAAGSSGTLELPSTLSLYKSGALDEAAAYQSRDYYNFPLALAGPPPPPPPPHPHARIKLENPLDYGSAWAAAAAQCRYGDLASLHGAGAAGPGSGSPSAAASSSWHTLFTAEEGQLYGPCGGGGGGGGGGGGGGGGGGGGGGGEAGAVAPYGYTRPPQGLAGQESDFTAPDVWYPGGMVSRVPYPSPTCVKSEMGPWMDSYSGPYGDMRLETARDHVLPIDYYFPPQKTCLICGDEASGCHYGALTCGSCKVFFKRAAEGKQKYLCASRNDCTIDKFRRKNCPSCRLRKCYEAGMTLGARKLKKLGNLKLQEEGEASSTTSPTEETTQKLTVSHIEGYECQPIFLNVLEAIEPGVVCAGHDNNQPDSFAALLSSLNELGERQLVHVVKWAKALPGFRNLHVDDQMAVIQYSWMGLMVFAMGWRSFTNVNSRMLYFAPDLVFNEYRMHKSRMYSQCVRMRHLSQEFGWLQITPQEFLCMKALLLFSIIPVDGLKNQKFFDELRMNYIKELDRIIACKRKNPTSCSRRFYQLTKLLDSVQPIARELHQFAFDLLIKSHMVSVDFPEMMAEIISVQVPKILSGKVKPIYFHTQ
method.description: MMTV-luciferase transcription assay in CV-1 cells, T877A AR
Assay type: cell-based
experimental.context: T877A AR; values given in μM; read-out: MMTV transcription assay in CV-1 cells T877A (IC50)
The response must be a number in µM with no trailing unit.

Q. Find IC50 (T877A (LNCaP) AR (Homo sapiens, UniProt P10275, T878A)) for the entry "COc1cc([C@H]2[C@H](c3ccccc3)[C@H](c3cc(OC)nc(OC)n3)[C@H]2c2ccccc2)nc(OC)n1"
A. 1.1

Continuing:
Q. Find IC50 (T877A (LNCaP) AR (Homo sapiens, UniProt P10275, T878A)) for the entry "Clc1cc([C@H]2[C@H](c3cccs3)[C@H](c3cc(Cl)nc(Cl)n3)[C@H]2c2cccs2)nc(Cl)n1"
A. 2.6

Q. Find IC50 (T877A (LNCaP) AR (Homo sapiens, UniProt P10275, T878A)) for the entry "Cc1cc([C@H]2[C@H](c3ccccc3)[C@H](c3cc(C)nc(Cl)n3)[C@H]2c2ccccc2)nc(Cl)n1"
A. 2.89

Q. Find IC50 (T877A (LNCaP) AR (Homo sapiens, UniProt P10275, T878A)) for the entry "Clc1cc([C@H]2[C@H](c3ccccc3)[C@H](c3cc(Cl)ncn3)[C@H]2c2ccccc2)ncn1"
A. 9
